Test system: L1210 leukemia ip in BDF1 mice, survival T/C
Method Notes: NCI In Vivo Anticancer Drug Screen. Data for tumor model L1210 Leukemia (intraperitoneal) in B6D2F1 (BDF1) mice
Condition Details: endpoint: mean survival time; dose: 100.0 mg/kg/injection; schedule: Q01DX001 (ip); vehicle: carboxymethylcellulose (CMC); higher = longer survival
Toxic doses and inconclusive results are not listed.
Recorded T/C by entry

• Cc1cc(N(CCCl)CCCl)ccc1C=Nc1cc(Br)cc(Br)c1 = 101 % of control
• NCCSc1cc(O)c2c(c1N)C(=O)c1ccccc1C2=O = 97 % of control
• N/N=C1\c2ccccc2-c2ccc([N+](=O)[O-])cc21 = 95 % of control
• Nc1cc2c(cc1[N+](=O)[O-])-c1ccc([N+](=O)[O-])cc1C2=O = 113 % of control
• Cc1cccc(C(=O)Cl)c1[N+](=O)[O-] = 93 % of control

Challenge: State its T/C for this compound: CCCCCCCCCCCCCCCCS(=O)(=O)N/N=C/c1ccc(NC(C)=O)cc1
Response given: 98 % of control

Challenge: State its T/C for this compound: O=[N+]([O-])c1ccccc1/C=N/Nc1nnc(N/N=C/c2ccccc2[N+](=O)[O-])c2ccccc12
Response given: 93 % of control

Challenge: State its T/C for this compound: Nc1cc(F)c2c(c1)Cc1cc(F)ccc1-2
Response given: 109 % of control

Challenge: State its T/C for this compound: COc1cc2cc3c4cc(OC)c(OC)cc4cc[n+]3c(/C=C\c3ccccc3O)c2cc1OC
Response given: 114 % of control

Challenge: State its T/C for this compound: CCOc1cc(C)c2cccc(C)c2n1
Response given: 88 % of control

Challenge: State its T/C for this compound: NCC1OC(n2cnc3c(N)ncnc32)CC1O (stereo unspecified)
Response given: 107 % of control

---

Tested on: L1210 leukemia ip in BDF1 mice, survival T/C
Method Notes: NCI In Vivo Anticancer Drug Screen. Data for tumor model L1210 Leukemia (intraperitoneal) in B6D2F1 (BDF1) mice
Condition Details: endpoint: mean survival time; dose: 50.0 mg/kg/injection; schedule: Q01DX001 (ip); vehicle: carboxymethylcellulose (CMC); higher = longer survival
Toxic doses and inconclusive results are not listed.
Recorded T/C by entry

Solved cases below.
• CCOC(=O)C1=CC2(c3ccccc3)CC1(c1ccccc1)C(c1ccccc1)=C2c1ccccc1 (stereo not given) = 97 % of control
• CN(C)c1ccc2nc3c(C(=O)O)cc(=O)c(O)c-3oc2c1 = 104 % of control
• CN(CC#CCOc1ccc(Cl)cc1)c1ccccc1 = 96 % of control
• NCCSc1cc(O)c2c(c1N)C(=O)c1ccccc1C2=O = 97 % of control

Moving on to another compound below.
Challenge: State its T/C for this compound: Fc1cc(N(CCCl)CCCl)ccc1CN1CCCN(Cc2ccc(N(CCCl)CCCl)cc2F)C1c1ccc(N(CCCl)CCCl)cc1Cl
Response given: 105 % of control

---

Test system: L1210 leukemia ip in BDF1 mice, survival T/C
Method Notes: NCI In Vivo Anticancer Drug Screen. Data for tumor model L1210 Leukemia (intraperitoneal) in B6D2F1 (BDF1) mice
Condition Details: endpoint: mean survival time; dose: 6.25 mg/kg/injection; schedule: Q01DX009 (ip); vehicle: saline; higher = longer survival
Toxic doses and inconclusive results are not listed.
Metric: T/C

- CC(N)C(O)c1cccc(O)c1 (stereo not given): 117 % of control
- CCCCCCCCCCCCCCCCCC[N+](C)(C)Cc1cc(=O)c(O)co1: 89 % of control
- CN(C)CC(CN1c2ccccc2Sc2ccccc21)N(C)C (stereo not given): 94 % of control

Challenge: State its T/C for this compound: Cc1ncc(CO)c(C2NOCc3ncsc32)c1O (stereo not given)
Response given: 89 % of control

Challenge: State its T/C for this compound: CC(C)(C)C([NH-])=O.CC(C)(C)C([NH-])=O.[Cl][Pt+2][Cl]
Response given: 86 % of control

---

System: L1210 leukemia ip in BDF1 mice, survival T/C
Method Notes: NCI In Vivo Anticancer Drug Screen. Data for tumor model L1210 Leukemia (intraperitoneal) in B6D2F1 (BDF1) mice
Condition Details: endpoint: mean survival time; dose: 25.0 mg/kg/injection; schedule: Q01DX001 (ip); vehicle: saline; higher = longer survival
Toxic doses and inconclusive results are not listed.
Metric: T/C

Solved cases below.
* C[n+]1c(/C=C/c2ccc3cccc(O)c3n2)ccc2cccc(O)c21 | 107 % of control
* Cc1cc(C)c[n+](Cc2ccccc2Cl)c1 | 96 % of control
* O=C(O)c1cc([N+](=O)[O-])cc(P(=O)(O)O)c1 | 99 % of control
* CCCCCCCCCCCCCCCCCC[N+](C)(C)C (tested in a mixture with another compound) | 117 % of control

Moving on to another compound below.
Challenge: State its T/C for this compound: O=C(Cc1ccccc1)NCc1ccccc1
Response given: 97 % of control

---

Tested on: L1210 leukemia ip in BDF1 mice, survival T/C
Method Notes: NCI In Vivo Anticancer Drug Screen. Data for tumor model L1210 Leukemia (intraperitoneal) in B6D2F1 (BDF1) mice
Condition Details: endpoint: mean survival time; dose: 400.0 mg/kg/injection; schedule: Q01DX001 (ip); vehicle: saline; higher = longer survival
Inconclusive results and toxic doses are left out.
Recorded T/C by entry

Solved cases below.
* Cc1c(O)ccc(=O)n1O | 104 % of control
* C1Cc2c3c4c(c5c2C(C1)CCC5)CCCC4CCC3 | 91 % of control
* CC(=O)NCC(N)=S | 98 % of control
* Nc1nc(N)c(NC/C=C\c2ccc([N+](=O)[O-])cc2)c(-c2ccccc2)n1 | 109 % of control
* COC(=O)C1OC(CO)C(O)C1O (stereo not drawn) | 97 % of control

Challenge: Under L1210 leukemia ip in BDF1 mice, survival T/C, report T/C for C(=N\N1CCN(/N=C/c2ccc(-c3ccccc3)cc2)CC1)/c1ccc(-c2ccccc2)cc1
Response given: 94 % of control

Challenge: Under L1210 leukemia ip in BDF1 mice, survival T/C, report T/C for c1ccc2c(c1)CCc1c-2[nH]c2c1ccc1ccccc12
Response given: 94 % of control

Challenge: Under L1210 leukemia ip in BDF1 mice, survival T/C, report T/C for CCC(C(=O)O)N1C(=O)c2ccccc2C1=O (stereo not drawn)
Response given: 103 % of control

Challenge: Under L1210 leukemia ip in BDF1 mice, survival T/C, report T/C for OCC1OC(n2cnc3ccccc32)C(O)C1O (stereo not drawn)
Response given: 95 % of control

Challenge: Under L1210 leukemia ip in BDF1 mice, survival T/C, report T/C for c1ccc(CN2C3c4ccccc4C2c2ccccc23)cc1
Response given: 95 % of control

Challenge: Under L1210 leukemia ip in BDF1 mice, survival T/C, report T/C for CC(=O)c1c(OC(C)C(=O)O)ccc2ccccc12 (stereo not drawn)
Response given: 107 % of control

Challenge: Under L1210 leukemia ip in BDF1 mice, survival T/C, report T/C for O=C(O)C1CCCC2C(O)CCC(O)C12 (stereo not drawn)
Response given: 91 % of control

Challenge: Under L1210 leukemia ip in BDF1 mice, survival T/C, report T/C for CCOC(=O)NC(CCl)NC(=O)OCC
Response given: 103 % of control

---

Test system: L1210 leukemia ip in BDF1 mice, survival T/C
Method Notes: NCI In Vivo Anticancer Drug Screen. Data for tumor model L1210 Leukemia (intraperitoneal) in B6D2F1 (BDF1) mice
Condition Details: endpoint: mean survival time; dose: 400.0 mg/kg/injection; schedule: Q01DX009 (ip); vehicle: saline with Tween-80; higher = longer survival
Inconclusive results and toxic doses are left out.
Recorded T/C by entry

* ON=C(c1ccc(Cl)cc1)c1ccc(Cl)cc1 | 93 % of control
* COc1ccc(CCNC(=O)Cc2ccccc2)cc1OC | 99 % of control
* C[C@@H]1CC2=CC(=O)CC[C@]2(C)[C@H]2CC[C@]3(C)[C@@H](O)CC[C@H]3[C@H]12 | 100 % of control
* CCOC(=O)C1CC1Cc1ccccc1 (stereo unspecified) | 104 % of control
* O=C(/C=C/c1ccc(O)cc1)c1ccccc1 | 102 % of control
* O=C(O)c1cc(Cl)c(O)c(Cl)c1 | 101 % of control
* Cc1cc2oc(=O)c(Cl)c(NCCO)c2c(C)c1Cl | 95 % of control
* CSc1cc(N)cc(C(=O)O)c1O | 88 % of control

Challenge: Under L1210 leukemia ip in BDF1 mice, survival T/C, report T/C for Cn1nnnc1N/N=C/c1ccccc1
Response given: 95 % of control

Challenge: Under L1210 leukemia ip in BDF1 mice, survival T/C, report T/C for CCOC(=O)Nc1cccc(O)c1
Response given: 92 % of control

Challenge: Under L1210 leukemia ip in BDF1 mice, survival T/C, report T/C for O=C(Oc1c(Cl)cc(Cl)cc1Cl)c1ccccc1
Response given: 106 % of control
